# measurementTarget: serotonin (5-HT) uptake (Rattus norvegicus, UniProt P31652)
# Construct: used as crude synaptosomal fraction; from tissue; host or cells: rat frontal cortex, crude synaptosomal fraction
# Sequence (P31652 whole entry): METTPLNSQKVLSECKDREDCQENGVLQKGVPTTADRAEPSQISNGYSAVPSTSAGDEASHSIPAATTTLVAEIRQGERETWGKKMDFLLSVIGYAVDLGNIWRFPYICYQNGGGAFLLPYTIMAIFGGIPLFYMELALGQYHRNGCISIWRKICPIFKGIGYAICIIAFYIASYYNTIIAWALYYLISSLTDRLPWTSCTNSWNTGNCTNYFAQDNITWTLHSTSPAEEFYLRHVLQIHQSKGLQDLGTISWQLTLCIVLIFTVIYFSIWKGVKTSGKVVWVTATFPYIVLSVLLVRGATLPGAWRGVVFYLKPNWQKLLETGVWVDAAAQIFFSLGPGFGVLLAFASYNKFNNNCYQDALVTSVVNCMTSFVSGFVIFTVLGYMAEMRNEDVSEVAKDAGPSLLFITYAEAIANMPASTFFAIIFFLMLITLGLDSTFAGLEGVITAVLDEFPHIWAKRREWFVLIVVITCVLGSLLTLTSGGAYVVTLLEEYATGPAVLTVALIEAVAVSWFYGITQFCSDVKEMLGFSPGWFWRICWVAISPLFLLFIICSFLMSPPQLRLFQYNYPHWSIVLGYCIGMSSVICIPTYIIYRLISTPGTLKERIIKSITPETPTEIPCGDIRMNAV
# testMethodNotes: Serotonin (5-HT) uptake inhibitory activity in rat brain synaptosome
# Type: biochemical
# conditionDescription: rat frontal cortex synaptosome, tritium-labeled 5-HT 8 nM; read-out: IC50 (nM), serotonin (5-HT) uptake inhibition
As shown below, each of these compounds has a reported IC50 value.
State just the number; it will be interpreted in nM.

Look over these answered cases.
State the recorded IC50 for this entry: CC1(C)CN(c2cc(F)c(OCCO)cc2F)[C@H]2CCCC[C@H]2N1 55.4

Looking for the measured IC50 of CC1(C)CN(c2ccc(OCCO)c(Cl)c2)[C@H]2CCCC[C@H]2N1 , can you help? 15.3

Requested field: IC50. Item: CC1(C)CN(c2ccc(OCCO)c(F)c2)[C@H]2CCCC[C@H]2N1 55

Entry under review: CC1(C)CN(c2ccc(OCCO)c(Cl)c2)[C@@H]2CCCC[C@H]2N1 . Reported IC50? 55.1

---
Value lookup for IC50; key = C[C@H]1CN(c2cc(F)c(OCCO)c(Cl)c2)[C@H]2CCCC[C@H]2N1 73.1

Bench note: what IC50 did CC1(C)CN(c2cc(F)c(OC(F)(F)CO)cc2F)[C@H]2CCCC[C@H]2N1 show? 57

Give the measured IC50 of COc1cc(N2CC3(CCC3)N[C@H]3CCCC[C@@H]32)ccc1OCCO . 39.6

Requested read-out: IC50. Entry: CC1(C)CN(c2ccc(OCCO)c(Cl)c2)[C@H]2CCCC[C@@H]2N1 7.6

Item Cc1c(N2CC(C)(C)N[C@@H]3CCCC[C@@H]32)ccc(OC(F)(F)CO)c1F has what recorded IC50? 30.3

---

What follows is a collection of IC50 values obtained with CYP2D6 (Homo sapiens, UniProt P10635).
Sequence (P10635 whole entry): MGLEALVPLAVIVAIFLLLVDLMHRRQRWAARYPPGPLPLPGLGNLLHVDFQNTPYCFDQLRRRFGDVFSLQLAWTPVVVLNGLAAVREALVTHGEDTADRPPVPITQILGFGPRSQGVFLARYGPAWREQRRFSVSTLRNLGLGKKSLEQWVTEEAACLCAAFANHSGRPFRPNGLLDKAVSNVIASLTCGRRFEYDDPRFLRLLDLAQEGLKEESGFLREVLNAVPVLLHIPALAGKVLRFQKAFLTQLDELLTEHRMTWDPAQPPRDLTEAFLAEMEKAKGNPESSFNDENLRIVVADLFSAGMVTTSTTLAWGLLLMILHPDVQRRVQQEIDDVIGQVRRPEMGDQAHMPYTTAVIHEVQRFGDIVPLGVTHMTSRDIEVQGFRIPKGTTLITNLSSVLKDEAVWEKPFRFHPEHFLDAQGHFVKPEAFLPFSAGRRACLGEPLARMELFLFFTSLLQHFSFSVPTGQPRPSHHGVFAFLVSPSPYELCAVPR
Give just the numeric value; µM need not be written.

API: value(readout= IC50, system= CYP2D6 (Homo sapiens, UniProt P10635), query= CC1(C)CN(c2cc(F)c(OCCO)c(F)c2)[C@H]2CCCC[C@H]2N1 [Example 36] ) 87.6

Provide value of IC50 for this record tested with CYP2D6 (Homo sapiens, UniProt P10635): CC1(C)CN(c2cc(F)c(OCCO)c(F)c2)[C@@H]2CCCC[C@H]2N1 [Example 35] 55.5

---

# measurementTarget: CYP3A4 (Homo sapiens, UniProt P08684)
# Construct: a human liver microsome solution containing three CYP-specific substrates; from tissue; host or cells: human liver microsomes
# Sequence (P08684 whole entry): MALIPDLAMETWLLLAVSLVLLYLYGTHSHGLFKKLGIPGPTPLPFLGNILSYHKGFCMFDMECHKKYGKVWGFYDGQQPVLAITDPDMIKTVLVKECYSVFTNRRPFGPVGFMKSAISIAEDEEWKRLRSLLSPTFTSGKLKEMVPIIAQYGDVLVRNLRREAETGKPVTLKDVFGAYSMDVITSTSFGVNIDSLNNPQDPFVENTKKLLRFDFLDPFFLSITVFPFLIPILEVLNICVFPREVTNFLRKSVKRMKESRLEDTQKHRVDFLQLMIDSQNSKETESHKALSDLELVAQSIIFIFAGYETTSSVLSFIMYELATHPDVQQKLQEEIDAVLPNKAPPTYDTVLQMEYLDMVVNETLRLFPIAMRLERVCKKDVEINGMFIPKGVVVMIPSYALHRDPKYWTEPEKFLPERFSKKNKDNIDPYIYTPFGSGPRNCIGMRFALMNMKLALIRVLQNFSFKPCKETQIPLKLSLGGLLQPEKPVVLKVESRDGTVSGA
# testMethodNotes: CYP inhibition test (2): 50% inhibitory concentration from 3 concentrations, CYP3A4
# Assay type: in vitro ADME
# conditionDescription: human liver microsome, midazolam substrate, 0.01, 0.03 and 0.1 mmol/L; read-out: 50% inhibitory concentration, 3A4
pIC50: −log10 of the molar value.
# key: entry, value: pIC50

Solved entries:
Fill in: pIC50 of COc1cc(N2CC(C)(C)N[C@H]3CCCC[C@@H]32)ccc1OC(F)(F)CO is ___ < 4.00

Name the reported pIC50 value associated with the compound CC1(C)CN(c2cc(F)c(OCCO)c(F)c2)[C@H]2CCCC[C@@H]2N1 < 4.00

I would be grateful if you could share the reported pIC50 for CC1(C)CN(c2ccc(OC(F)(F)CO)cc2)[C@H]2CCCC[C@@H]2N1 . 4.02

Any idea what pIC50 was measured for Cc1cc(N2CC(C)(C)N[C@@H]3CCCC[C@H]32)ccc1OC(F)(F)CO ? 4.20

Which pIC50 is listed for CC1(C)CN(c2cc(F)c(OCCO)c(F)c2)[C@H]2CCCC[C@H]2N1 ? < 4.00

# pIC50 lookup, item CC1(C)CN(c2ccc(OCCO)c(Cl)c2)[C@@H]2CCCC[C@H]2N1 < 4.00

Next compound, pIC50 to be filled in.
Fill in the blank: the reported pIC50 of CC1(C)CN(c2ccc(OC(F)(F)CO)cc2)[C@@H]2CCCC[C@H]2N1 is ____. < 4.00

---

Parameter inhibition at 10 min, 0.01 mmol/L: see the listing below.
# measurementTarget: CYP2D6 (Homo sapiens, UniProt P10635)
# Construct: a human liver microsome solution containing three CYP-specific substrates; from tissue; host or cells: human liver microsomes
# testMethodNotes: CYP inhibition test (1): inhibition rate (%) at one concentration, CYP2D6
# Format: in vitro ADME
# conditionDescription: human liver microsomes, pH 7.4, probe bufuralol (0.01 mmol/L); test compound 0.01 mmol/L, human liver microsome 0.1 mg/mL, substrate bufuralol, 37° C. 10 minutes; read-out: inhibition rate (%) 2D6

Some solved entries appear below for comparison.
Request the reported inhibition at 10 min, 0.01 mmol/L associated with Cc1c(OC(F)(F)CO)ccc(N2CC(C)(C)N[C@H]3CCCC[C@H]32)c1F 45.6%

May I ask what inhibition at 10 min, 0.01 mmol/L has been recorded for Cc1cc(N2CC3(CCC3)N[C@H]3CCCC[C@@H]32)cc(F)c1OCCO ? 20.5%

Dear colleague, I am looking for the recorded inhibition at 10 min, 0.01 mmol/L of the following molecule: CC1(C)CN(c2ccc(OCCO)c3occc23)[C@@H]2CCCC[C@@H]2N1 41.8%

Bench note: what inhibition at 10 min, 0.01 mmol/L did CC1(C)CN(c2ccc(OC(F)(F)CO)cc2F)[C@H]2CCCC[C@H]2N1 show? 16.1%

Consider the molecule shown here: CC1(C)CN(c2cc(Cl)c(OC(F)(F)CO)cc2F)[C@@H]2CCCC[C@H]2N1 What is its recorded inhibition at 10 min, 0.01 mmol/L? 21.9%

***
Look up inhibition at 10 min, 0.01 mmol/L: CC1(C)CN(c2cc(Cl)c(OC(F)(F)CO)cc2F)[C@H]2CCCC[C@@H]2N1 19.3%

GET /values?readout=inhibition at 10 min, 0.01 mmol/L&item= OCCOc1c(F)cc(N2CC3(CCC3)N[C@H]3CCCC[C@@H]32)cc1Cl 15%

Request the reported inhibition at 10 min, 0.01 mmol/L associated with CC1(C)CN(c2ccc(OC(F)(F)CO)c(Cl)c2F)[C@@H]2CCCC[C@H]2N1 20.9%

---

# testMethodNotes: Metabolic stability test (human liver microsome, hepatic intrinsic clearance)
# Format: in vitro ADME
# conditionDescription: human liver microsomes, pH 7.4; human liver microsome 0.2 mg/mL, test compound 0.001 mmol/L, 37° C., 0, 10 and 20 minutes
Quick list: microsomal CLint at 0.001 mmol/L per entry.

Field: example entries. Status: answers known.
Entry under review: CC1(C)CN(c2ccc(OCCO)c(Cl)c2)[C@H]2CCCC[C@@H]2N1 [Example 27] . Reported microsomal CLint at 0.001 mmol/L? < 50 µL/min/mg

Sample Cc1c(N2CC(C)(C)N[C@@H]3CCCC[C@@H]32)ccc(OC(F)(F)CO)c1F [Example 57] — what was its microsomal CLint at 0.001 mmol/L? 58 µL/min/mg

Give its microsomal CLint at 0.001 mmol/L value. Item: CC1(C)CN(c2ccc(OC(F)(F)CO)c(F)c2F)[C@H]2CCCC[C@H]2N1 [Example 73] < 50 µL/min/mg

What microsomal CLint at 0.001 mmol/L value was documented for this compound, CC1(C)CN(c2cc(F)c(OCCO)cc2F)[C@H]2CCCC[C@H]2N1 [Example 72] ? < 50 µL/min/mg

Fill blank: measured microsomal CLint at 0.001 mmol/L of the compound CC1(C)CN(c2ccc(OC(F)(F)CO)c(Cl)c2F)[C@@H]2CCCC[C@H]2N1 [Example 80] is ____. 57 µL/min/mg

I would be grateful if you could share the reported microsomal CLint at 0.001 mmol/L for C[C@@H]1CN(c2ccc(OC(F)(F)CO)c(Cl)c2)[C@H]2CCCC[C@@H]2N1 [Example 19] . < 50 µL/min/mg

Which microsomal CLint at 0.001 mmol/L value is on record for Cc1cc(N2CC3(CCC3)N[C@H]3CCCC[C@@H]32)cc(F)c1OCCO [Example 14] ? < 50 µL/min/mg

The record that follows has no microsomal CLint at 0.001 mmol/L shown yet.
Need microsomal CLint at 0.001 mmol/L of CC1(C)CN(c2cc(Cl)c(OC(F)(F)CO)cc2F)[C@H]2CCCC[C@@H]2N1 [Example 75] , thanks. < 50 µL/min/mg

---

# measurementTarget: CYP3A4 (Homo sapiens)
# Construct: a human liver microsome solution containing three CYP-specific substrates; from tissue; host or cells: human liver microsomes
# testMethodNotes: CYP inhibition test (1): inhibition rate (%) at one concentration, CYP3A4
# Type: in vitro ADME
# conditionDescription: human liver microsomes, pH 7.4, probe midazolam (0.005 mmol/L); test compound 0.01 mmol/L, human liver microsome 0.1 mg/mL, substrate midazolam, 37° C. 10 minutes; read-out: inhibition rate (%) 3A4
quantityMeasured: inhibition at 10 min, 0.01 mmol/L
State the result as a value with its unit after it.

Some entries whose results are on file:
I'm curious: which inhibition at 10 min, 0.01 mmol/L was measured for Cc1cc(N2CC(C)(C)N[C@@H]3CCCC[C@@H]32)ccc1OC(F)(F)CO tested on CYP3A4 (Homo sapiens)? -9.2%

What measured inhibition at 10 min, 0.01 mmol/L is associated with CC1(C)CN(c2cc(F)c(OCCO)cc2F)[C@H]2CCCC[C@H]2N1 on CYP3A4 (Homo sapiens)? -2.4%

Record CC1(C)CN(c2ccc(OCCO)c(F)c2)[C@H]2CCCC[C@H]2N1 : what is its inhibition at 10 min, 0.01 mmol/L with CYP3A4 (Homo sapiens)? 0.1%

Test system CYP3A4 (Homo sapiens); read-out inhibition at 10 min, 0.01 mmol/L; what value for CC1(C)CN(c2cc(F)c(OC(F)(F)CO)cc2F)[C@H]2CCCC[C@H]2N1 ? -3.4%

Form field: inhibition at 10 min, 0.01 mmol/L recorded for CC1(C)CN(c2ccc(OC(F)(F)CO)c(Cl)c2F)[C@@H]2CCCC[C@H]2N1 with CYP3A4 (Homo sapiens) (enter value) 17.6%

Others:
API: value(readout=inhibition at 10 min, 0.01 mmol/L, system=CYP3A4 (Homo sapiens)) for record OCCOc1c(F)cc(N2CC3(CCC3)N[C@H]3CCCC[C@@H]32)cc1Cl 23.3%

Short answer please: inhibition at 10 min, 0.01 mmol/L, CYP3A4 (Homo sapiens), entry CC1(C)CN(c2ccc(OCCO)cc2Cl)[C@H]2CCCC[C@H]2N1 3.9%

Report inhibition at 10 min, 0.01 mmol/L for CC1(C)CN(c2ccc(OC(F)(F)CO)cc2F)[C@H]2CCCC[C@H]2N1 tested on CYP3A4 (Homo sapiens). -2.7%

The reported measurements were obtained from patent US20240409519A1.
